Test system: human Factor XI mRNA
test details: Dose-dependent inhibition in HepB3 cells, electroporation (Example 7)
Format: cell-based
reported conditions: 1111.11 nM, approx. 16 h
readout label: percent inhibition of human Factor XI mRNA
Could you write the number and then its unit?

Example entries and their recorded answers appear below.
- substance: "417002 (antisense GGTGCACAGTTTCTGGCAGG; 2-13-5 gapmer, wing sugar chemistry not given here, further chemistry not given here) [compound 417002]"
  target system: "human Factor XI mRNA"
  recorded value: "47%"
- substance: "416838 (antisense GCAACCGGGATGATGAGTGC; 5-10-5 gapmer, wing sugar chemistry not given here, further chemistry not given here) [compound 416838]"
  target system: "human Factor XI mRNA"
  recorded value: "40%"

Turning now to a further substance:
Request: Return percent inhibition of human Factor XI mRNA for the following substance: 417003 (antisense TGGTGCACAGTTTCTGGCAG; 2-13-5 gapmer, wing sugar chemistry not given here, further chemistry not given here) [compound 417003]
Response: 43%

* * *

test details: Tolerability in Sprague-Dawley rats: hematology assays (Example 23)
Assay type: in vivo
Set-up: unit not given here
reported conditions: blood
In the oligonucleotide strings, read from the 5' end, every base follows the letter of its sugar. An asterisk marks phosphorothioate; unmarked linkages are phosphodiester. Other units and linkages are bracketed, terminal groups are in braces. A string of capitals states the bases alone. e = 2'-O-(2-methoxyethyl) (MOE); [5mC] = 5-methylcytosine; d = 2'-deoxy (DNA)
Below is a list of entries, each paired with its recorded WBC value.
Format: numeric value only, no unit, no commentary.

Example entries and their recorded answers appear below.
- substance: "ISIS 416861: gapmer of Table 8 (antisense eG*e[5mC]*eG*eG*eA*d[5mC]*dG*dG*d[5mC]*dA*dT*dT*dG*dG*dT*eG*e[5mC]*eA*e[5mC]*eA)"
  WBC: 15
- substance: "ISIS 416859: gapmer of Table 8 (antisense eG*eA*e[5mC]*eG*eG*d[5mC]*dA*dT*dT*dG*dG*dT*dG*d[5mC]*dA*e[5mC]*eA*eG*eT*eT)"
  WBC: 16
- substance: "ISIS 416851: gapmer of Table 8 (antisense eG*eT*eG*e[5mC]*eA*d[5mC]*dA*dG*dT*dT*dT*d[5mC]*dT*dG*dG*e[5mC]*eA*eG*eG*e[5mC])"
  WBC: 11
- substance: "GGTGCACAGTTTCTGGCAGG (all C 5-methyl, all phosphorothioate, sugars by position not given here; MOE gapmer) [ISIS 413481, 5-10-5 MOE gapmer]"
  WBC: 14

Turning now to a further substance:
Request: Return WBC for the following substance: ISIS 416852: gapmer of Table 8 (antisense eT*eG*eG*eT*eG*d[5mC]*dA*d[5mC]*dA*dG*dT*dT*dT*d[5mC]*dT*eG*eG*e[5mC]*eA*eG)
Response: 13

* * *

Below is a list of entries, each paired with its recorded percent inhibition of Factor XI value.
Test system: human Factor XI mRNA
test details: Dose-dependent antisense inhibition in HepG2 cells, lipofectin (Example 2)
Format: cell-based
reported conditions: 37.5 nM, approximately 16 hours
In the oligonucleotide strings, read from the 5' end, every base follows the letter of its sugar. An asterisk marks phosphorothioate; unmarked linkages are phosphodiester. Other units and linkages are bracketed, terminal groups are in braces. A string of capitals states the bases alone. e = 2'-O-(2-methoxyethyl) (MOE); [5mC] = 5-methylcytosine; d = 2'-deoxy (DNA)

Example entries and their recorded answers appear below.
- substance: "413481 (antisense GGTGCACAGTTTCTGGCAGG; sugars from the 5' end e5 d10 e5, backbone and methylation of C not given here) [compound 413481]"
  readout label: "percent inhibition of Factor XI"
  recorded value: "56%"
- substance: "412224 (antisense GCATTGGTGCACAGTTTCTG; sugars from the 5' end e5 d10 e5, backbone and methylation of C not given here) [compound 412224]"
  readout label: "percent inhibition of Factor XI"
  recorded value: "57%"
- substance: "412206 (antisense e[5mC]*e[5mC]*eG*eT*eG*d[5mC]*dA*dT*d[5mC]*dT*dT*dT*d[5mC]*dT*dT*eG*eG*e[5mC]*eA*eT) [compound 412206]"
  readout label: "percent inhibition of Factor XI"
  recorded value: "68%"
- substance: "413467 (antisense eG*eG*eT*e[5mC]*e[5mC]*dA*d[5mC]*dA*dT*dA*dA*dA*dT*dG*dT*e[5mC]*eT*eT*eT*eG) [compound 413467]"
  readout label: "percent inhibition of Factor XI"
  recorded value: "49%"
- substance: "413468 (antisense eG*eT*e[5mC]*eT*eA*dG*dG*dT*d[5mC]*d[5mC]*dA*d[5mC]*dA*dT*dA*eA*eA*eT*eG*eT) [compound 413468]"
  readout label: "percent inhibition of Factor XI"
  recorded value: "56%"

Request: Quote human Factor XI mRNA percent inhibition of Factor XI for entry 412223 (antisense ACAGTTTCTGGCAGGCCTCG; sugars from the 5' end e5 d10 e5, backbone and methylation of C not given here) [compound 412223] .
Response: 62%

Request: Quote human Factor XI mRNA percent inhibition of Factor XI for entry 413476 (antisense eT*eT*eG*eA*eG*dA*dT*dT*d[5mC]*dT*dT*dT*dG*dG*dG*e[5mC]*e[5mC]*eA*eT*eT) [compound 413476] .
Response: 64%

Request: Quote human Factor XI mRNA percent inhibition of Factor XI for entry 412203 (antisense eA*eA*eT*eG*eT*d[5mC]*dT*dT*dT*dG*dT*dT*dG*d[5mC]*dA*eA*eG*e[5mC]*eG*e[5mC]) [compound 412203] .
Response: 61%

* * *

test details: Tolerability in CD1 mice: liver function (Example 21)
Format: in vivo
reported conditions: plasma, 50 mg/kg s.c. twice per week for 6 weeks
Below is a list of entries, each paired with its recorded AST value.
Could you write the number and then its unit?

Example entries and their recorded answers appear below.
- construct sequence: "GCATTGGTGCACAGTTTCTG (antisense; all C 5-methyl, all phosphorothioate, sugars by position not given here; MOE gapmer, 5-10-5) [ISIS 412224, 5-10-5 MOE gapmer]"
  AST: "183 IU/L"
- construct sequence: "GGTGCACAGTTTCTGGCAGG (all C 5-methyl, all phosphorothioate, sugars by position not given here; MOE gapmer) [ISIS 413481, 5-10-5 MOE gapmer]"
  AST: "143 IU/L"
- construct sequence: "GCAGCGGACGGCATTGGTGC (antisense; all C 5-methyl, all phosphorothioate, sugars by position not given here; MOE gapmer, 5-10-5) [ISIS 412225, 5-10-5 MOE gapmer]"
  AST: "69 IU/L"

Request: Return AST for the following sequence: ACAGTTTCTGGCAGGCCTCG (antisense; all C 5-methyl, all phosphorothioate, sugars by position not given here; MOE gapmer, 5-10-5) [ISIS 412223, 5-10-5 MOE gapmer]
Response: 125 IU/L

Request: Return AST for the following sequence: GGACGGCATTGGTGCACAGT (antisense; all C 5-methyl, all phosphorothioate, sugars by position not given here; MOE gapmer, 5-10-5) [ISIS 413482, 5-10-5 MOE gapmer]
Response: 77 IU/L

* * *

Below is a list of entries, each paired with its recorded Inhibition of Factor XI protein relative to the PBS control value.
Test system: Factor XI protein
test details: Cynomolgus monkeys: plasma Factor XI protein ELISA (Example 30)
Assay type: in vivo
reported conditions: 25 mg/kg s.c.; plasma ELISA; Day 10
In the oligonucleotide strings, read from the 5' end, every base follows the letter of its sugar. An asterisk marks phosphorothioate; unmarked linkages are phosphodiester. Other units and linkages are bracketed, terminal groups are in braces. A string of capitals states the bases alone. e = 2'-O-(2-methoxyethyl) (MOE); [5mC] = 5-methylcytosine; d = 2'-deoxy (DNA)
Reply numerically in %, unit not repeated.

Example entries and their recorded answers appear below.
- substance: "416850 (antisense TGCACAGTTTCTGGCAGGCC; 5-10-5 gapmer, wing sugar chemistry not given here, further chemistry not given here) [compound 416850]"
  target system: "Factor XI protein"
  unit string: "%"
  recorded value: 20
- substance: "445522 (antisense eG*e[5mC]*eA*e[5mC]*eA*dG*dT*dT*dT*d[5mC]*dT*dG*dG*e[5mC]*eA*eG*eG*e[5mC]) [compound 445522]"
  target system: "Factor XI protein"
  unit string: "%"
  recorded value: 36

Request: Return Inhibition of Factor XI protein relative to the PBS control for the following substance: 449707 (antisense e[5mC]*eA*e[5mC]*eA*dG*dT*dT*dT*d[5mC]*dT*dG*dG*e[5mC]*eA*eG*eG) [compound 449707]
Response: 16

* * *

Below is a list of entries, each paired with its recorded percent inhibition of human Factor XI mRNA value.
Tested on: human Factor XI mRNA
test details: Dose-dependent inhibition in HepB3 cells, lipofectin (Example 7)
Assay type: cell-based
reported conditions: 4.7 nM, approx. 16 h
Reply numerically in %, unit not repeated.

- substance: "416925 (antisense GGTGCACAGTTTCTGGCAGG; 3-14-3 chimeric gapmer, wing sugar chemistry not given here, further chemistry not given here) [compound 416925]"
  target system: "human Factor XI mRNA"
  recorded value: 33
- substance: "417002 (antisense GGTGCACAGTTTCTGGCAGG; 2-13-5 gapmer, wing sugar chemistry not given here, further chemistry not given here) [compound 417002]"
  target system: "human Factor XI mRNA"
  recorded value: 30
- substance: "417003 (antisense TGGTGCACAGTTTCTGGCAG; 2-13-5 gapmer, wing sugar chemistry not given here, further chemistry not given here) [compound 417003]"
  target system: "human Factor XI mRNA"
  recorded value: 28
- substance: "416864 (antisense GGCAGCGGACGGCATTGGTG; 5-10-5 gapmer, wing sugar chemistry not given here, further chemistry not given here) [compound 416864]"
  target system: "human Factor XI mRNA"
  recorded value: 37
- substance: "416850 (antisense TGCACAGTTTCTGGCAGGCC; 5-10-5 gapmer, wing sugar chemistry not given here, further chemistry not given here) [compound 416850]"
  target system: "human Factor XI mRNA"
  recorded value: 32
- substance: "416999 (antisense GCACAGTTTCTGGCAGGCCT; 2-13-5 gapmer, wing sugar chemistry not given here, further chemistry not given here) [compound 416999]"
  target system: "human Factor XI mRNA"
  recorded value: 33
- substance: "416825 (antisense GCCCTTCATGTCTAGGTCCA; 5-10-5 gapmer, wing sugar chemistry not given here, further chemistry not given here) [compound 416825]"
  target system: "human Factor XI mRNA"
  recorded value: 15
- substance: "416858 (antisense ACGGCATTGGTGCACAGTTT; 5-10-5 gapmer, wing sugar chemistry not given here, further chemistry not given here) [compound 416858]"
  target system: "human Factor XI mRNA"
  recorded value: 34
- substance: "416892 (antisense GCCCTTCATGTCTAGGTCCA; 3-14-3 chimeric gapmer, wing sugar chemistry not given here, further chemistry not given here) [compound 416892]"
  target system: "human Factor XI mRNA"
  recorded value: 34
- substance: "416826 (antisense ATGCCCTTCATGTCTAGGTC; 5-10-5 gapmer, wing sugar chemistry not given here, further chemistry not given here) [compound 416826]"
  target system: "human Factor XI mRNA"
  recorded value: 28

Turning now to a further substance:
Request: Return percent inhibition of human Factor XI mRNA for the following substance: 416838 (antisense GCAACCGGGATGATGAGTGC; 5-10-5 gapmer, wing sugar chemistry not given here, further chemistry not given here) [compound 416838]
Response: 34

From: patent US20120083522A1
